settings: in acetone, 278.15 K
observedProperty: solubility (mole fraction)
Answers are plain numbers.

I would be grateful if you could share the reported solubility (mole fraction) for "O=C(O)c1cccc(O)c1" . 0.101

* * *

conditions: in ethanol, 293.15 K
observedProperty: solubility (mole fraction)
Give bare numbers.

I would be grateful if you could share the reported solubility (mole fraction) for "O=C(O)c1cccc(O)c1" . 0.106

* * *

details: in isopropanol, 318.15 K
observedProperty: solubility (mole fraction)

I would be grateful if you could share the reported solubility (mole fraction) for "O=C(O)c1cccc(O)c1" . 0.148

* * *

conditions: in ethylene glycol, 298.15 K
observedProperty: solubility (mole fraction)
One number for each entry.

I would be grateful if you could share the reported solubility (mole fraction) for "O=C(O)c1cccc(O)c1" . 0.0959

Origin of measurements: BigSolDB 2.1
